# credit: ChEMBL document CHEMBL4138104

- Test system: HCT-116
- procedure.details: Growth inhibition of human HCT116 cells incubated for 48 hrs by sulforhodamine B assay
- Assay type: functional
- particulars: HCT-116, 48 h
Field 'label' (enum: label 1 / label 0). Set to label 1 when GI50 is strictly under 0.3 µM; else label 0.

C=C1C(=O)O[C@@H]2[C@H]3O[C@]3(C)CC/C=C(/COC(=O)c3cn(C)c4ccccc34)CC[C@@H]12 = label 0

We now examine a further molecule.
Q: Please indicate whether the reported GI50 of CN(C)CC1C(=O)O[C@@H]2[C@H]3O[C@]3(C)CC/C=C(/COC(=O)c3cc4ccccc4[nH]3)CC[C@@H]12.O=C(O)/C=C/C(=O)O (some centres not stated) is strictly below 0.3 µM.
Ans: label 1
